Value source: the supplement of paper PMC12783771

Each record here notes measured sfGFP reporter fluorescence.
B1: library; numbered along this chain (parent)
chain: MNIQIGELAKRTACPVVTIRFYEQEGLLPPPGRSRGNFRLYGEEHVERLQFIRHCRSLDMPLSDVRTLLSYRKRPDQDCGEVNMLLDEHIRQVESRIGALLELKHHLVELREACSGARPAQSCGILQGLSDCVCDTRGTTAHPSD

# Variants of: B1
# measurement.protocol: sfGFP reporter fluorescence (15 h) (µM FITC); higher = higher leak
# measurement.context: library round: Round 1; ligand: none
Answer as a number with no unit attached.

# annotated cases, reported sfGFP reporter fluorescence shown
R111L G128P | 0.0584
M60L D64K K104V L107C G128I | 1.95
N83T D131A P143I | 0.0661
D131Y D135P | 0.0677
L100I | 0.0611

Requested read-out: sfGFP reporter fluorescence. Entry: H105E
0.0625
